Can you tell me AUC of ventral prostate weight (FIG. 5) for the items I'm about to list?
test system: castrate Sprague-Dawley rats; test: Duration of activity after a single subcutaneous injection (ventral prostate weight over weeks, AUC); format: in vivo; conditions: single subcutaneous injection, 0.6 mg, S.O. (sesame oil), n=5
Could you respond with only the numeric value?

Task: Need AUC of ventral prostate weight (FIG. 5) of CCCCC1CCC(C(=O)O[C@H]2CC[C@H]3[C@@H]4CCC5=CC(=O)CC[C@]5(C)[C@H]4CC[C@]23C)CC1 (stereo partly shown) [CDB-1781a, Testosterone bucyclate] , thanks.
Result: 186

Task: Same read-out for C[C@@H]1CC2=CC(=O)CC[C@@H]2[C@@H]2[C@@H]1[C@@H]1CC[C@H](O)[C@@]1(C)C[C@@H]2C [CDB-1321D] ?
Result: 166

Task: Same read-out for CCCCCCC(=O)O[C@H]1CC[C@H]2[C@@H]3CCC4=CC(=O)CC[C@]4(C)[C@H]3CC[C@]12C [CDB-112E, testosterone enanthate] ?
Result: 497

Task: Same read-out for CCCC[C@H]1CC[C@H](C(=O)O[C@H]2CC[C@H]3[C@H]4[C@H]([C@@H](C)C[C@]23C)[C@H]2CCC(=O)C=C2C[C@H]4C)CC1 (relative stereo) [CDB-4386A] ?
Result: 157
